target of assay: Aβ42 monomer (Homo sapiens)
Construct: Small red spheres mark the Aβ42 peptide C-terminal residue, A42; purchased Sigma-Aldrich Corp
Sequence (P05067 672-713 limits assumed): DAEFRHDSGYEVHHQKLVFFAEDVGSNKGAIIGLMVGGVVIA
test: Sterol binding to Aβ42, equilibrium DHE fluorescence titrations
experimental context: direct Aβ42 titration of DHE fluorescence; single-binding-site fit; K2PO4 50 mM, pH 7.4, 25 °C; read-out: Kd
assay readout: Kd (nM)

1. CC(C)[C@@H](C)/C=C/[C@@H](C)[C@H]1CC[C@H]2C3=CC=C4C[C@@H](O)CC[C@]4(C)C3=CC[C@]12C [DHE, dehydroergosterol, reference compound] = 16

Data origin, for the record: paper PMC10704437
